System: human cancer cell lines
Test: Anticancer activity in human cancer cell lines, not tied to one cell line
Assay type: cell-based
Settings: human cancer cell lines, 72-hour exposure

[
  {
    "Compound": "CCCC12CC34SSC(C)(C(=O)N3C1N(S(=O)(=O)c1ccccc1)c1ccccc12)N(C)C4=O (stereo not drawn) [Compound 63, α-C3-Propyl epidithiodiketopiperazine]",
    "anticancer activity, in words": "inactive"
  },
  {
    "Compound": "CN1C(=O)[C@@]23C[C@]4([C@]56C[C@@]78SS[C@@](C)(C(=O)N7[C@H]5N(S(=O)(=O)c5ccccc5)c5ccccc56)N(C)C8=O)c5ccccc5N(S(=O)(=O)c5ccccc5)[C@@H]4N2C(=O)[C@]1(C)SS3 [Compound 14, Dimeric epidithiodiketopiperazine]",
    "anticancer activity, in words": "active across the board"
  },
  {
    "Compound": "CN1C(=O)[C@]23C[C@]4(Br)c5ccccc5N(S(=O)(=O)c5ccccc5)[C@@H]4N2C(=O)[C@H]1SS3 [Compound 34, C3-Bromo epidithiodiketopiperazines]",
    "anticancer activity, in words": "inactive"
  },
  {
    "Compound": "CN1C(=O)[C@@]23C[C@]4([C@]56C[C@@]78SSSS[C@@](CO)(C(=O)N7[C@H]5Nc5ccccc56)N(C)C8=O)c5ccccc5N[C@@H]4N2C(=O)[C@]1(CO)SSSS3 [Compound 6, (+)-12,12′-dideoxychetracin A]",
    "anticancer activity, in words": "active across the board"
  }
]

----------
Test system: U-937 (hystiocytic lymphoma)
Assay: 72-hour IC50 determination for non-adherent cells using MTS
Format: cell-based, human
Settings: 72-hour exposure; MTS; error is standard deviation of the mean, n ≧ 3; read-out: U-937, 72-hour IC50 (Table E1-1)
Assay Metric: IC50

Give U-937 (hystiocytic lymphoma) IC50 for CN1CC(=O)N2C(CC3(c4c[nH]c5ccccc45)c4ccccc4N(S(=O)(=O)c4ccccc4)C23)C1=O (stereo not drawn)
> 10 µM

Give U-937 (hystiocytic lymphoma) IC50 for CC(C)[Si](O[C@@H]1C(=O)N2[C@H]3N(S(=O)(=O)c4ccccc4)c4ccccc4[C@@]3(c3c[nH]c4ccccc34)C[C@@]2(O)C(=O)N1C)(C(C)C)C(C)C
> 10 µM

Give U-937 (hystiocytic lymphoma) IC50 for CC(C)C(=O)O[C@@H]1C(=O)N2[C@H]3Nc4ccccc4[C@@]3(c3c[nH]c4ccccc34)C[C@]2(SC(=O)C(C)C)C(=O)N1C
> 10 µM

----------
Please respond with reported IC50 for every item in the list.
System: U-937 (hystiocytic lymphoma)
Test: 72-hour IC50 determination for non-adherent cells using MTS
Format: cell-based, human
Conditions: 72-hour exposure; MTS; error is standard deviation of the mean, n ≧ 3; read-out: U-937, 72-hour IC50 (Table E1-1)

Form field: reported IC50 of COCS[C@]12C[C@]3(c4cn(C(=O)OC(C)(C)C)c5ccccc45)c4ccccc4N(S(=O)(=O)c4ccccc4)[C@@H]3N1C(=O)CN(C)C2=O
> 10 µM

Form field: reported IC50 of CC(C)[Si](O[C@@H]1C(=O)N2[C@H]3Nc4ccccc4[C@@]3(c3c[nH]c4ccccc34)C[C@@]2(O)C(=O)N1C)(C(C)C)C(C)C
> 10 µM

Form field: reported IC50 of CN1C(=O)[C@]23C[C@]4(c5c[nH]c6ccccc56)c5ccccc5N(S(=O)(=O)c5ccccc5)[C@@H]4N2C(=O)[C@@]1(C)SS3
> 1 µM
